System: OVCAR-4 ovarian
assay: NCI-60 one-dose screen, 48 h (100 = growth as untreated, 0 = no growth, -100 = all killed)
study.conditions: 10 µM unless noted
Compounds without any hit were thinned out: in the full panel of roughly 83,000, 20% have a hit.
The following molecules are listed with their measured growth values.
Number only, in %; omit the unit.

Worked examples follow.
{"columns": ["molecule", "readout.unit", "growth"],
 "data": [
  ["CS(=O)(=O)Nc1cc(-c2ccc3ncc(C#N)c(Nc4ccc(F)c(Cl)c4)c3c2)cnc1Cl", "%", -6.46],
  ["Cc1ccc(S(=O)(=O)OCCCOS(=O)(=O)c2ccc(C)cc2)cc1", "%", 100],
  ["CCS/C(Nc1ccccc1)=C(\\C#N)C(=O)Nc1ccc(OC)cc1", "%", 66.7],
  ["O=C(O)c1cn(C2CC2)c2cc(N3CCN(C(=O)Nc4nc(-c5ccc(Br)cc5)cs4)CC3)c(F)cc2c1=O", "%", 26.6],
  ["COc1ccc2c(c1)CCc1[nH]nc(-c3cc(OC)c(OC)c(OC)c3)c1-2", "%", 45.3],
  ["CCCCNc1cc(-c2cn[nH]c2-c2cc(C)cc(OC)c2)nc(-c2cccnc2)n1", "%", 73.8],
  ["COc1ccc(/C=C/C(c2cc(OC)c(OC)c(OC)c2)n2ccnc2)cc1O (stereo not given)", "%", 78.8],
  ["C=Cc1cnc(Nc2ccc(OC)cc2)nc1NCCCNC(=O)C1CCC1", "%", 46.4],
  ["O=C(/C=C/c1ccc(Cl)cc1)c1cccc(OCCCOc2cccc(C(=O)/C=C/c3ccc(Cl)cc3)c2)c1", "%", 91.7]
]}

Read the next record carefully.
// fetch growth given entry COC(=O)c1c2c(c(C)[n+]([O-])c1C)C(=O)C(NCc1ccc(OC)cc1)=CC2=O
-39.2
